Assay: Cytotoxicity against human HuH7 cells assessed as reduction of 50% rRNA level after 96 hrs
Format: cell-based, Huh-7
Settings: HuH7 cells
property: CC50 at 96 h (µM)
Unit µM implied. Number only.

Sample `C[C@@]1(F)[C@H](O)[C@@H](CO)O[C@H]1n1cc(I)c2c(N)ncnc21` ; CC50 at 96 h observed: 10.4

###

Property: pIC50; scope: individual compounds
System: PBMC
Assay: Cytotoxicity against human PBMC after 6 days by trypan blue exclusion method
Assay type: cell-based
Settings: 144 h
In plain terms, pIC50 is the concentration in mol/L turned into minus its base-10 logarithm.

Sample `C[C@@]1(F)[C@H](O)[C@@H](CO)O[C@H]1n1cc(Cl)c2c(N)ncnc21` ; pIC50 observed: 4.73

Sample `C#Cc1cn([C@@H]2O[C@H](CO)[C@@H](O)[C@@]2(C)F)c2ncnc(N)c12` ; pIC50 observed: 4.03

Sample `C[C@@]1(F)[C@H](O)[C@@H](CO)O[C@@H]1n1cc(Br)c2c(N)ncnc21` ; pIC50 observed: 4.05

Sample `C[C@@]1(F)[C@H](O)[C@@H](CO)O[C@H]1n1cc(I)c2c(N)nc(N)nc21` ; pIC50 observed: 4.14

Sample CCOC(=O)[C@H](C)NP(=O)(OC[C@H]1O[C@@H](n2cc(I)c3c(N)nc(N)nc32)[C@](C)(F)[C@@H]1O)Oc1ccccc1 (stereo partly drawn) ; pIC50 observed: 4.17

Sample `C[C@@]1(F)[C@H](O)[C@@H](CO)O[C@H]1n1cc(C#Cc2ccccc2)c2c(N)ncnc21` ; pIC50 observed: 4.39

Sample CCOC(=O)[C@H](C)NP(=O)(OC[C@H]1O[C@@H](n2cc(I)c3c(N)ncnc32)[C@](C)(F)[C@@H]1O)Oc1ccccc1 (stereo partly drawn) ; pIC50 observed: 4.76

Sample `C=Cc1cn([C@@H]2O[C@H](CO)[C@@H](O)[C@@]2(C)F)c2ncnc(N)c12` ; pIC50 observed: 5.32

###

System: CCRF-CEM
Assay: Cytotoxicity against human CEM cells after 6 days by trypan blue exclusion method
Format: cell-based
Conditions: 144 h
Property: pIC50; scope: individual compounds
In plain terms, pIC50 is the concentration in mol/L turned into minus its base-10 logarithm.

{"columns": ["compound", "assay-system", "property", "readout-number"],
 "data": [
  ["CCOC(=O)[C@H](C)NP(=O)(OC[C@H]1O[C@@H](n2cc(I)c3c(N)ncnc32)[C@](C)(F)[C@@H]1O)Oc1ccccc1 (some centres undefined)", "CCRF-CEM", "pIC50", 4.87]
]}

--- query ---
Sample `C[C@@]1(F)[C@H](O)[C@@H](CO)O[C@H]1n1cc(I)c2c(N)nc(N)nc21` ; pIC50 observed: 4.07

###

System: Human immunodeficiency virus 1
Assay: Antiviral activity against HIV1 LAV1 infected in PHA-stimulated human PBMC assessed as reduction in RT activity after 6 days by micromethod-based beta scintillation counting
Assay type: functional, organism-based
Conditions: Human immunodeficiency virus 1, LAV1, 144 h
property: EC50

Answered cases to consult:
{"columns": ["smiles-input", "assay-system", "EC50"],
 "data": [
  ["CNc1ncnc2c1c(F)cn2[C@@H]1O[C@H](CO)[C@@H](O)[C@@]1(C)F", "Human immunodeficiency virus 1", "> 100 µM"],
  ["C[C@@]1(F)[C@H](O)[C@@H](CO)O[C@H]1n1ccc2c(N)ncnc21", "Human immunodeficiency virus 1", "> 100 µM"]
]}

Sample `C[C@@]1(F)[C@H](O)[C@@H](CO)O[C@H]1n1cc(F)c2c(N)ncnc21` ; EC50 observed: > 100 µM
